- assay target: DNMT3A catalytic domain (mouse)
- assay procedure: relative CpG methylation activity (normalised to average over all NNNCGNNN flanks) (relative (1 = mean)); higher = more methylation of the central CpG
- stated conditions: system: in vitro, murine catalytic domain; CpG state: hemimethylated substrate pool; residues: 608-908
Whole data set: some 4,100 sequences, median “relative CpG methylation activity (normalised to average over all NNNCGNNN flanks)” near 0.87, cut for the highest 2% near 2.4. This is one part of a sample in which the highest values are shown more often than they occur.
Parameter threshold = 1. Response is Met when relative CpG methylation activity meets or exceeds it, else Not met.

>>> category("TCACGTCC")
"Met"
>>> category("ATACGCCA")
"Met"
>>> category("CAACGCCC")
"Met"
>>> category("CAACGTCC")
"Met"
>>> category("ACACGTCA")
"Met"

query: Is relative CpG methylation activity for TGCCGCGA at or above 1?
result: Not met

query: Is relative CpG methylation activity for TAACGCCT at or above 1?
result: Met

query: Is relative CpG methylation activity for TCTCGAGG at or above 1?
result: Not met

query: Is relative CpG methylation activity for CTACGCCC at or above 1?
result: Met

query: Is relative CpG methylation activity for TTACGTCT at or above 1?
result: Met

---

- assay target: DNMT3A catalytic domain (mouse) (UniProt O88508)
- assay procedure: relative CpG methylation activity (normalised to average over all NNNCGNNN flanks) (relative (1 = mean)); higher = more methylation of the central CpG
- stated conditions: system: in vitro, murine catalytic domain; CpG state: hemimethylated substrate pool; residues: 608-908
Over roughly 4,100 sequences, “relative CpG methylation activity (normalised to average over all NNNCGNNN flanks)” has its median near 0.87; the highest 2% begin near 2.4. This excerpt belongs to a sample that is enriched for the highest values.
Parameter threshold = 2. Response is Condition met when relative CpG methylation activity meets or exceeds it, else Condition not met.

query: Is relative CpG methylation activity for ATACGCGC at or above 2?
result: Condition not met

query: Is relative CpG methylation activity for GTGCGACC at or above 2?
result: Condition not met

---

- assay target: DNMT3A catalytic domain (mouse)
- assay procedure: relative CpG methylation activity (normalised to average over all NNNCGNNN flanks) (relative (1 = mean)); higher = more methylation of the central CpG
- stated conditions: system: in vitro, murine catalytic domain; CpG state: hemimethylated substrate pool; residues: 608-908
In all, about 4,100 sequences were measured (“relative CpG methylation activity (normalised to average over all NNNCGNNN flanks)”: median about 0.87, highest 2% from about 2.4 on). The list comes from a sample in which the highest values are over-represented; it also holds close analogues and randomly drawn sequences.
Assignment: determine reported relative CpG methylation activity for the given sequences.
One number for each entry.

Reference set, count: 10
>>> value_measured("AACCGACT")
0.927
>>> value_measured("TTACGTTG")
1.34
>>> value_measured("GCGCGAGA")
0.455
>>> value_measured("TGACGTCA")
0.989
>>> value_measured("TTACGTAA")
2.54
>>> value_measured("GGTCGAAA")
0.512
>>> value_measured("CGACGCGT")
0.316
>>> value_measured("CGACGTCG")
1.28
>>> value_measured("GACCGGCA")
0.909
>>> value_measured("TTACGTAT")
1.48

Please go through the list and note relative CpG methylation activity for each sequence.
1. GAACGTCG
2. TGACGTCG

result:
1.25
1.02

Please go through the list and note relative CpG methylation activity for each sequence.
1. TTACGTTT
2. TTACGTTA
3. AGGCGTTA
4. TTACGTAG

result:
1. 1.72
2. 2.55
3. 0.256
4. 1.34

Please go through the list and note relative CpG methylation activity for each sequence.
1. TCACGTCA
2. ATACGTAA
3. AAACGGTC

result:
1. 2.03
2. 2.01
3. 0.701

Please go through the list and note relative CpG methylation activity for each sequence.
1. CTACGTAC
2. GATCGAGC
3. CTACGTAA

result:
[1.9, 0.679, 2.4]

---

- assay target: DNMT3A catalytic domain (mouse) (UniProt O88508)
- assay procedure: relative CpG methylation activity (normalised to average over all NNNCGNNN flanks) (relative (1 = mean)); higher = more methylation of the central CpG
- stated conditions: system: in vitro, murine catalytic domain; CpG state: hemimethylated substrate pool; residues: 608-908
Over roughly 4,100 sequences, “relative CpG methylation activity (normalised to average over all NNNCGNNN flanks)” has its median near 0.87; the highest 2% begin near 2.4. For the sample, the highest values were picked, then their nearest neighbours and some sequences at random.
Assignment: determine reported relative CpG methylation activity for the given sequences.

>>> value_measured("TCACGCTC")
2.5
>>> value_measured("CGGCGGAT")
0.495
>>> value_measured("CGGCGTTT")
0.165

Please go through the list and note relative CpG methylation activity for each sequence.
1. TCTCGTGT
2. ATACGACG
3. GGTCGTAT
4. CGCCGGCC

result:
0.225
1.73
0.455
0.909

Please go through the list and note relative CpG methylation activity for each sequence.
1. AACCGAGG
2. CCACGCTC
3. ACACGCAC
4. TGCCGCTT
5. GTCCGATC
6. ATGCGGTG
7. ATACGCGT
8. TTGCGTAT

result:
1: 0.346; 2: 2.5; 3: 1.72; 4: 1.45; 5: 2.18; 6: 0.407; 7: 1.9; 8: 1.47

Please go through the list and note relative CpG methylation activity for each sequence.
1. CTACGATT
2. ACGCGCCG

result:
[1.89, 1.59]

Please go through the list and note relative CpG methylation activity for each sequence.
1. CTACGATC
2. CGGCGTAA
3. CCACGCTA

result:
1: 2.4; 2: 0.615; 3: 1.53

---

- assay target: DNMT3A catalytic domain (mouse)
- assay procedure: relative CpG methylation activity (normalised to average over all NNNCGNNN flanks) (relative (1 = mean)); higher = more methylation of the central CpG
- stated conditions: system: in vitro, murine catalytic domain; CpG state: hemimethylated substrate pool; residues: 608-908
Whole data set: some 4,100 sequences, median “relative CpG methylation activity (normalised to average over all NNNCGNNN flanks)” near 0.87, cut for the highest 2% near 2.4. The list comes from a sample in which the highest values are over-represented; it also holds close analogues and randomly drawn sequences.
Assignment: determine reported relative CpG methylation activity for the given sequences.
Give bare numbers.

>>> value_measured("TCCCGAGA")
1.02
>>> value_measured("TTTCGCCG")
1.83
>>> value_measured("ACCCGCCG")
1.76

Please go through the list and note relative CpG methylation activity for each sequence.
1. CTCCGCGT
2. CTACGCCA
3. ATCCGCCT
4. AGACGAGA
5. GTCCGCCC
6. CTCCGCCC

result:
1.98
2.74
2.5
0.731
2.41
2.44

Please go through the list and note relative CpG methylation activity for each sequence.
1. CGCCGCCA
2. TCCCGCCC
3. CTACGCAG
4. GAGCGCCT
5. ATTCGCAA
6. ATACGTCA

result:
1: 1.25; 2: 1.99; 3: 1.43; 4: 1.95; 5: 1.09; 6: 2.47

---

- assay target: DNMT3A catalytic domain (mouse) (UniProt O88508)
- assay procedure: relative CpG methylation activity (normalised to average over all NNNCGNNN flanks) (relative (1 = mean)); higher = more methylation of the central CpG
- stated conditions: system: in vitro, murine catalytic domain; CpG state: hemimethylated substrate pool; residues: 608-908
In all, about 4,100 sequences were measured (“relative CpG methylation activity (normalised to average over all NNNCGNNN flanks)”: median about 0.87, highest 2% from about 2.4 on). The full list was thinned out, with the highest values kept by preference.
Assignment: determine reported relative CpG methylation activity for the given sequences.
Numbers only.

Reference set, count: 3
>>> value_measured("TGCCGTCT")
1.28
>>> value_measured("ATCCGGAA")
0.939
>>> value_measured("TTCCGTCC")
2.26

Please go through the list and note relative CpG methylation activity for each sequence.
1. CTACGCAT
2. GTACGTCC
3. TTGCGTCC
4. TTCCGTCG
5. AGACGTCA
6. TGTCGGTC

result:
1. 1.97
2. 2.41
3. 2.39
4. 2.09
5. 1.03
6. 0.542

Please go through the list and note relative CpG methylation activity for each sequence.
1. GTACGTCA
2. CGACGATT
3. CTTCGCTT
4. TTCCGTCT
5. TATCGATG
6. TGCCGAGC
7. TTTCGCTC

result:
2.5
0.644
1.78
2.58
0.224
1.38
2.02
